tested on: Escherichia coli TOP10; assay: shrunken log2 fold change of peptide-encoding DNA abundance (4.5 h post-induction vs induction); higher = less antimicrobial activity (less host growth inhibition); conditions: time post-induction: 4.5 h; library: site-saturation at positions 5, 18, 19, 20;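 further: peptides expressed intracellularly from a pBAD plasmid library in pooled LB shake-flask culture, induced with 0.3% L-arabinose, DNA abundance read by NGS, three biological replicates, DESeq2 with apeglm shrinkage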
Please mark Yes if the recorded shrunken log2 fold change is equal to or greater than -0.05, and No if it falls below.

chain	assay-target	classification
RRIRNRPPRLPRPRPRPYSFPRP	Escherichia coli TOP10	No
RRIRDRPPRLPRPRPRPFCMPRP	Escherichia coli TOP10	Yes
RRIRVRPPRLPRPRPRPMFTPRP	Escherichia coli TOP10	No
RRIRSRPPRLPRPRPRPDDHPRP	Escherichia coli TOP10	Yes
RRIRGRPPRLPRPRPRPWCTPRP	Escherichia coli TOP10	Yes
RRIRSRPPRLPRPRPRPTQKPRP	Escherichia coli TOP10	Yes
RRIRHRPPRLPRPRPRPVFGPRP	Escherichia coli TOP10	Yes
RRIRNRPPRLPRPRPRPMAHPRP	Escherichia coli TOP10	Yes
RRIRYRPPRLPRPRPRPPIMPRP	Escherichia coli TOP10	No
RRIRYRPPRLPRPRPRPSWSPRP	Escherichia coli TOP10	No
RRIRTRPPRLPRPRPRPRFHPRP	Escherichia coli TOP10	Yes
RRIRFRPPRLPRPRPRPRCRPRP	Escherichia coli TOP10	Yes
RRIRQRPPRLPRPRPRPHRHPRP	Escherichia coli TOP10	No
RRIRNRPPRLPRPRPRPCYIPRP	Escherichia coli TOP10	No
RRIRMRPPRLPRPRPRPFILPRP	Escherichia coli TOP10	No
